- EXPERIMENTAL PROTOCOL: LogP by HPLC on reversed phase columns (EEC directive 79/831 Annex V.A8)
- Type: physicochemical
- EXPERIMENTAL CONTEXT: [b] LC-UV, neutral range, 0.001 molar ammonium acetate solution in water and acetonitrile as eluent
REPORTED ENDPOINT: LogP

- OC(Cn1cncn1)(c1ccc(F)cc1F)C1(Oc2ccc(F)cc2Cl)CC1 (racemic) [Example I-02]: 3.46^[b]
- Cc1cc(I)ccc1OC1(C(O)(Cn2cncn2)c2ccc(F)cc2F)CC1 (racemic) [Example I-12]: 4.30^[b]
- OC(Cn1cncn1)(c1ccc(F)cc1F)C1(Oc2ccc(Br)cc2F)CC1 (racemic) [Example I-09]: 3.54^[b]

====

Item-by-item account of LogP
- EXPERIMENTAL PROTOCOL: LogP by HPLC on reversed phase columns (EEC directive 79/831 Annex V.A8)
- Format: physicochemical
- EXPERIMENTAL CONTEXT: [b] LC-UV, neutral range, 0.001 molar ammonium acetate solution in water and acetonitrile as eluent
REPORTED ENDPOINT: LogP

- O=C(c1ccc(F)cc1F)C1(Oc2ccc(I)cc2)CC1 [IV-10]: 4.57
- N#Cc1cc(I)ccc1OC1(C2(c3ccc(F)cc3F)CO2)CC1 (stereo not drawn) [Example V-13]: 4.21
- Fc1ccc(C2(C3(Oc4ccc(Br)cc4)CC3)CO2)c(F)c1 (stereo not drawn) [Example V-7]: 4.74
- Fc1ccc(C2(C3(Oc4ccccc4I)CC3)CO2)c(F)c1 (stereo not drawn) [Example V-8]: 4.66
- Fc1ccc(C2(C3(Oc4cccc(Br)c4)CC3)CO2)c(F)c1 (stereo not drawn) [Example V-6]: 4.71
- Fc1ccc(C2(C3(Oc4ccc(Br)cc4F)CC3)CO2)c(F)c1 (stereo not drawn) [Example V-11]: 4.65
- O=C(c1ccc(F)cc1F)C1(Oc2cccc(I)c2)CC1 [IV-9]: 4.53
- O=C(c1ccc(F)cc1F)C1(Oc2ccc(OC(F)(F)F)cc2)CC1 [IV-15]: 4.53
- N#Cc1cc(I)ccc1OC1(C(=O)c2ccc(F)cc2F)CC1 [IV-13]: 3.92
- Fc1ccc(C2(C3(Oc4ccccc4Br)CC3)CO2)c(F)c1 (stereo not drawn) [Example V-5]: 4.43

====

- EXPERIMENTAL PROTOCOL: LogP by HPLC on reversed phase columns (EEC directive 79/831 Annex V.A8)
- Type: physicochemical
- EXPERIMENTAL CONTEXT: [a] LC-UV, acidic range, 0.1% formic acid in water and acetonitrile as eluent
Marks after values point to notes of the source that are not given here.
Item-by-item account of LogP
REPORTED ENDPOINT: LogP

- C[Si](C)(C)COC(Cn1cncn1)(c1ccc(F)cc1F)C1(Oc2ccc(Cl)cc2)CC1 (racemic): 5.68^[a]
- OC(Cn1cncn1)(c1ccc(Cl)cc1F)C1(Oc2ccc(Cl)cc2)CC1 (racemic): 3.94^[a]
- OC(Cn1cncn1)(c1ccc(F)cc1F)C1(Oc2ccc(C(F)(F)F)cc2)CC1 (racemic): 3.70^[a]
- Fc1ccc(C2(C3(Oc4ccc(Br)cc4F)CC3)CO2)c(F)c1 (centres unmarked): 4.57
- Cc1cc(Br)ccc1OC1(C(=O)c2ccc(F)cc2F)CC1: 4.88
- Fc1ccc(C2(C3(Oc4ccc(F)cc4Cl)CC3)CO2)c(F)c1 (centres unmarked): 4.45
- Fc1ccc(C2(C3(Oc4ccc(Cl)cc4F)CC3)CO2)c(F)c1 (centres unmarked): 4.50^[a]; 4.50^[b]
- Fc1ccc(C2(C3(Oc4cccc(Cl)c4F)CC3)CO2)c(F)c1 (racemic): 4.44^[a]

====

- EXPERIMENTAL PROTOCOL: LogP by HPLC on reversed phase columns (EEC directive 79/831 Annex V.A8)
- Format: physicochemical
- EXPERIMENTAL CONTEXT: [b] LC-UV, neutral range, 0.001 molar ammonium acetate solution in water and acetonitrile as eluent
REPORTED ENDPOINT: LogP

• Cc1cc(Br)ccc1OC1(C(=O)c2ccc(F)cc2F)CC1 = 4.87
• Fc1ccc(C2(C3(Oc4ccc(OC(F)(F)F)cc4)CC3)CO2)c(F)c1 (stereo not drawn) = 4.86
• Fc1ccc(C2(C3(Oc4ccc(SC(F)(F)F)cc4)CC3)CO2)c(F)c1 (stereo not drawn) = 5.24
• Fc1ccc(C2(C3(Oc4cccc(I)c4)CC3)CO2)c(F)c1 (stereo not drawn) = 4.90
• O=C(c1ccc(F)cc1F)C1(Oc2ccc(Br)cc2F)CC1 = 4.36
• Fc1ccc(C2(C3(Oc4ccc(F)cc4Cl)CC3)CO2)c(F)c1 (stereo not drawn) = 4.44
• O=C(c1ccc(F)cc1F)C1(Oc2ccc(SC(F)(F)F)cc2)CC1 = 4.92

====

Item-by-item account of LogP
- EXPERIMENTAL PROTOCOL: LogP by HPLC on reversed phase columns (EEC directive 79/831 Annex V.A8)
- Type: physicochemical
- EXPERIMENTAL CONTEXT: [a] LC-UV, acidic range, 0.1% formic acid in water and acetonitrile as eluent
REPORTED ENDPOINT: LogP

• Fc1ccc(C2(C3(Oc4ccccc4I)CC3)CO2)c(F)c1 (centres unmarked) = 4.58
• O=C(c1ccc(F)cc1F)C1(Oc2ccc(C(F)(F)F)cc2)CC1 = 4.44^[a]
• Fc1ccc(C2(C3(Oc4cccc(Br)c4)CC3)CO2)c(F)c1 (centres unmarked) = 4.63
• Fc1ccc(C2(C3(Oc4c(F)cccc4Cl)CC3)CO2)c(F)c1 (centres unmarked) = 4.49^[a]
• O=C(c1ccc(F)cc1F)C1(Oc2ccc(OC(F)(F)F)cc2)CC1 = 4.49
• OC(Cn1cncn1)(c1ccc(F)cc1F)C1(Oc2ccccc2F)CC1 (racemic) = 3.04^[a]
• OC(Cn1cncn1)(c1ccc(F)cc1F)C1(Oc2ccc(SC(F)(F)F)cc2)CC1 (racemic) = 4.09^[a];
• Fc1ccc(C2(C3(Oc4c(F)cccc4Br)CC3)CO2)c(F)c1 (centres unmarked) = 4.59^[a]
• OC(Cn1cncn1)(c1ccc(F)cc1F)C1(Oc2ccc(Cl)cc2F)CC1 (racemic) = 3.52^[a];
• Fc1cc(Cl)ccc1C1(C2(Oc3ccc(Cl)cc3)CC2)CO1 (racemic) = 5.08^[a]
• Fc1ccc(C2(C3(Oc4ccc(OC(F)(F)F)cc4)CC3)CO2)c(F)c1 (centres unmarked) = 4.70
• OC(Cn1cncn1)(c1ccc(F)cc1F)C1(Oc2c(F)cccc2Cl)CC1 (racemic) = 3.39^[a]
• OC(Cn1cncn1)(c1ccc(F)cc1F)C1(Oc2ccccc2I)CC1 (racemic) = 3.64^[a];
• Cc1cc(Br)ccc1OC1(C(O)(Cn2cncn2)c2ccc(F)cc2F)CC1 (racemic) = 3.99^[a];
• COC(Cn1cncn1)(c1ccc(F)cc1F)C1(Oc2ccc(F)cc2F)CC1 (racemic) = 3.44^[a]
• OC(Cn1cncn1)(c1ccc(F)cc1F)C1(Oc2ccc(I)cc2)CC1 (racemic) = 3.78^[a];
• O=C(c1ccc(F)cc1F)C1(Oc2ccc(Br)c(F)c2)CC1 = 3.99^[a]

====

Item-by-item account of LogP
- EXPERIMENTAL PROTOCOL: LogP by HPLC on reversed phase columns (EEC directive 79/831 Annex V.A8)
- Assay type: physicochemical
- EXPERIMENTAL CONTEXT: [b] LC-UV, neutral range, 0.001 molar ammonium acetate solution in water and acetonitrile as eluent
REPORTED ENDPOINT: LogP

• OC(Cn1cncn1)(c1ccc(F)cc1F)C1(Oc2ccccc2)CC1 (racemic) = 3.71^[b]
• Fc1ccc(C2(C3(Oc4ccc(Cl)cc4F)CC3)CO2)c(F)c1 (stereo not drawn) = 4.50^[a]; 4.50^[b]
• OC(Cn1cncn1)(c1ccc(F)cc1F)C1(Oc2ccccc2I)CC1 (racemic) = 3.64^[b]

====

- EXPERIMENTAL PROTOCOL: LogP by HPLC on reversed phase columns (EEC directive 79/831 Annex V.A8)
- Format: physicochemical
- EXPERIMENTAL CONTEXT: [a] LC-UV, acidic range, 0.1% formic acid in water and acetonitrile as eluent
REPORTED ENDPOINT: LogP

• OC(Cn1cncn1)(c1ccc(F)cc1F)C1(Oc2c(Cl)cccc2Cl)CC1 (racemic) [Example I-19] = 3.76^[a]
• COC(Cn1cncn1)(c1ccc(F)cc1F)C1(Oc2c(Cl)cccc2Cl)CC1 (racemic) [Example I-20] = 4.06^[a]
• O=C(c1ccc(F)cc1F)C1(Oc2cccc(Cl)c2F)CC1 [IV-28] = 4.21^[a]
• OC(Cn1cncn1)(c1ccc(F)cc1F)C1(Oc2ccc(Br)cc2)CC1 (racemic) [Example I-07] = 3.59^[a];
• OC(Cn1cncn1)(c1ccc(F)cc1F)C1(Oc2ccc(Br)cc2F)CC1 (racemic) [Example I-09] = 3.56^[a];
• COC(Cn1cncn1)(c1ccc(F)cc1F)C1(Oc2c(F)cccc2Cl)CC1 (racemic) [Example I-23] = 3.78^[a]
• Fc1ccc(C2(C3(Oc4ccccc4Br)CC3)CO2)c(F)c1 (stereo not drawn) [Example V-5] = 4.36
• O=C(c1ccc(F)cc1F)C1(Oc2c(F)cccc2Cl)CC1 [IV-19] = 4.26^[a]
• O=C(c1ccc(Cl)cc1F)C1(Oc2ccc(Cl)cc2F)CC1 [IV-22] = 4.72^[a]

Origin of values: patent US20180116220A1
